Test system: Homo sapiens (human subject panel, olfactory perception)
Assay: perceived odor intensity rating (rating 0-100); higher = stronger perceived smell
Details: odor dilution in paraffin oil: 1/1,000
metric_name: perceived odor intensity rating
Give bare numbers.

// known answers, use as guide
CCCC(O)CC (configuration not stated) [3-hexanol (replicate)]	68.9
C=C(C)[C@H]1CC=C(C)CC1	29.6

Give me perceived odor intensity rating for each of these molecules, listed below.
1. CC1(C)CCC[C@]2(C)[C@H]3CCO[C@]3(C)CC[C@@H]12
2. CC12CCC(CC1)C(C)(C)O2
3. NCCc1ccc(O)cc1
4. CC(=O)c1cc2c(cc1C)C(C)(C)C(C)CC2(C)C (configuration not stated)
5. CCCC(C)C(=O)OCC (configuration not stated) [Ethyl 2-methylpentanoate]
6. CCCCCCO
7. OCC(O)CO
8. S=C=NCCc1ccccc1 [2-Phenylethyl isothiocyanate]

Solution:
1: 50.1; 2: 70.1; 3: 20.4; 4: 29.8; 5: 67.9; 6: 61.5; 7: 26.8; 8: 75.5

Give me perceived odor intensity rating for each of these molecules, listed below.
1. COc1ccccc1C=O [o-Anisaldehyde]
2. C/C=C/c1ccc(OC)c(OC)c1

Solution:
[70, 37.9]
